Origin of values: patent US5079150A

Parameter color density of spot: see the listing below.
Biological target: Horseradish peroxidase (Armoracia rusticana, UniProt P00433)
Sequence (P00433 31-353): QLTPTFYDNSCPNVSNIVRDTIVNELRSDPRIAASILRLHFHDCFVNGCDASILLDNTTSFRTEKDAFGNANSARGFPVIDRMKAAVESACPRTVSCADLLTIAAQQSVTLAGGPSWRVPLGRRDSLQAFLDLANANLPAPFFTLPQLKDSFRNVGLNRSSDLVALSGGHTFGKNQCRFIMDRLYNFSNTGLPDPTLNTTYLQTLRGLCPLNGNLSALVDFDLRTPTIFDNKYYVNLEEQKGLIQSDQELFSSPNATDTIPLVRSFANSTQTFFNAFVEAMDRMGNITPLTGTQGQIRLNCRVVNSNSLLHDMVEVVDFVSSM
Experiment: Comparison of substrates for HRP detection on membranes, reflectance densitometer
Type: biochemical
Conditions: Nitrocellulose membrane; amount of HRP 30 pg; substrate 2 mg/mL, approximately three minutes

Example cases with answers are listed next.
molecule: Cc1cc(-c2cc(C)c(N)c(C)c2)cc(C)c1N [TMB, 3,3',5,5'-tetramethylbenzidine, reference compound]
test target: Horseradish peroxidase (Armoracia rusticana, UniProt P00433)
color density of spot: .01 arbitrary units

molecule: Nc1ccc(Cl)cc1N
test target: Horseradish peroxidase (Armoracia rusticana, UniProt P00433)
color density of spot: .09 arbitrary units

molecule: Nc1ccc(-c2ccc(N)c(N)c2)cc1N [DAB, 3,3'-diaminobenzidine, reference compound]
test target: Horseradish peroxidase (Armoracia rusticana, UniProt P00433)
color density of spot: .00 arbitrary units

Exercise: Provide Horseradish peroxidase (Armoracia rusticana, UniProt P00433) color density of spot reading for `Cc1cc(N)c(N)cc1C` .
Key: .03 arbitrary units

Exercise: Provide Horseradish peroxidase (Armoracia rusticana, UniProt P00433) color density of spot reading for `Nc1cc(Cl)c(Cl)cc1N` .
Key: .02 arbitrary units

Exercise: Provide Horseradish peroxidase (Armoracia rusticana, UniProt P00433) color density of spot reading for `Cc1ccc(N)c(N)c1` .
Key: .03 arbitrary units

---

target: Horseradish peroxidase (Armoracia rusticana, UniProt P00433); experiment: Comparison of substrates for HRP detection on membranes, reflectance densitometer; assay type: biochemical; conditions: IMMUNODYNE nylon membrane; amount of HRP 0.3 mg; substrate 2 mg/mL, approximately three minutes
reported property: color density of spot

Example cases with answers are listed next.
molecule: Nc1ccc(-c2ccc(N)c(N)c2)cc1N [DAB, 3,3'-diaminobenzidine, reference compound]
test target: Horseradish peroxidase (Armoracia rusticana, UniProt P00433)
color density of spot: 1.67 arbitrary units
//
molecule: Cc1ccc(N)c(N)c1 [DAT, 3,4 Diaminotoluene]
test target: Horseradish peroxidase (Armoracia rusticana, UniProt P00433)
color density of spot: .99 arbitrary units
//
molecule: Nc1ccc(Cl)cc1N [4-Chloro-1,2-phenylenediamine]
test target: Horseradish peroxidase (Armoracia rusticana, UniProt P00433)
color density of spot: 2.24 arbitrary units
//
molecule: Nc1cc(Cl)c(Cl)cc1N [4,5-Dichloro-1,2-phenylenediamine]
test target: Horseradish peroxidase (Armoracia rusticana, UniProt P00433)
color density of spot: .48 arbitrary units
//
molecule: Cc1cc(-c2cc(C)c(N)c(C)c2)cc(C)c1N [TMB, 3,3',5,5'-tetramethylbenzidine, reference compound]
test target: Horseradish peroxidase (Armoracia rusticana, UniProt P00433)
color density of spot: .23 arbitrary units

Now for a further molecule.
Exercise: Return reported color density of spot. Input molecule: Cc1cc(N)c(N)cc1C [4,5-Dimethyl-1,2-phenylenediamine]
Key: .53 arbitrary units
